Target: T1, HLA-A*24:02 (human, biotinylated heavy chain)
T1 construct: Conditional HLA class I complex first loaded with a UV-labile peptide, exchanged for the test peptide after UV; also called conditional HLA class I complex
Assay: UV peptide exchange + HLA class I ELISA
attribute.measured: exchange rate vs Pos peptide (%)
// units = %; emit number, no label

Specify exchange rate vs Pos peptide for IQYSCMGLM [P50 9-mer peptide (AR (W742C))] and stop.
0.1

Specify exchange rate vs Pos peptide for FPVGAEGTF [P27 9-mer peptide (FAM126B-ORC2 fusion)] and stop.
0.7

Specify exchange rate vs Pos peptide for NSKMALNSL [P35 9-mer peptide (TMPRSS2-ERG fusion)] and stop.
0.2

Specify exchange rate vs Pos peptide for STRRAVRRM (Synthetic 9-mer fragment) [P16 9-mer peptide (MSMB-NCOA4 fusion)] and stop.
0.8
